Molecular target: T1, mouse PD-1 expressed on cells (mouse, UniProt Q02242 25-288)
T1 construct: whole, on cells
T1 sequence (looked up): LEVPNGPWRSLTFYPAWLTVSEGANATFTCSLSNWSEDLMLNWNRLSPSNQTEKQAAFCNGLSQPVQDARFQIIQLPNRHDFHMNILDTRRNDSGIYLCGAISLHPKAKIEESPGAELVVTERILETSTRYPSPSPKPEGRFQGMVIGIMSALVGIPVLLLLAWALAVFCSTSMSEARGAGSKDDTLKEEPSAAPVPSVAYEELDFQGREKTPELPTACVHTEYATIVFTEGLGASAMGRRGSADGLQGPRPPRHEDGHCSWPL
Assay: flow cytometry, mPD1-293 cells
PROPERTY MEASURED: EC50 (nM)
Give your result in nM as a bare value.

Q: Determine from records and report EC50 for m2A1 (antibody, V domains shown, R3A9 derivative; also called m2AM (apparent misprint)) VH: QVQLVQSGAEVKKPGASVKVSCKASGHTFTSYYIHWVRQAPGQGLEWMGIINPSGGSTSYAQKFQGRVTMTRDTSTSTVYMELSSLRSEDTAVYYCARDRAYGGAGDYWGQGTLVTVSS VL: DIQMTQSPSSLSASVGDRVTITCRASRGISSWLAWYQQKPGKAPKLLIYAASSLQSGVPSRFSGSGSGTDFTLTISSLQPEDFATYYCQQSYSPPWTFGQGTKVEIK
Result: 0.433

Data provenance is patent US20230416363A1.
